Hello, the source for this data is ChEMBL document CHEMBL1127325, in case you need it.

Target: Gastrin-releasing peptide receptor (Mus musculus, UniProt P21729)
Sequence (P21729 whole entry): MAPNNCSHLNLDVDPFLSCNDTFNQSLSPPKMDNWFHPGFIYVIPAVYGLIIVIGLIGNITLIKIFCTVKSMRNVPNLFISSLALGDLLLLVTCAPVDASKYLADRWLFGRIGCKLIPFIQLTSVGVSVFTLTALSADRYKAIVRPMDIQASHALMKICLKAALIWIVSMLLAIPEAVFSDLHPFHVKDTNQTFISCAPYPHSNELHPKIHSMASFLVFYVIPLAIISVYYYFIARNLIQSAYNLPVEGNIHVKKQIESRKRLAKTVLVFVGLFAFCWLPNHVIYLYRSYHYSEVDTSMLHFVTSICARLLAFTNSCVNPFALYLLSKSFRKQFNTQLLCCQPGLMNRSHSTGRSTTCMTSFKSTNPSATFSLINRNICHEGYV
Assay: Ability of peptide to inhibit binding of 10 pM [125I]gastrin releasing peptide to S-3T3 cell membrane.
Assay type: cell-based
Where a SMILES comes first, the peptide text is derived from it. [ ]: non-standard residue; d: D form. The star is where a group is joined. dProψ(CH2NH)PheNH2 = NC(=O)[C@H](Cc1ccccc1)NC[C@H]1CCCN1*; X6 = C[C@H](C(=O)*)c1ccccc1
quantity: IC50 (nM)
The answer is to be given in nM; state only the numeric part.

Lab note: CC(C)[C@H](NC(=O)[C@H](C)NC(=O)[C@H](Cc1c[nH]c2ccccc12)NC(=O)[C@H](Cc1cnc[nH]1)NC(=O)c1cccc2ccccc12)C(=O)N[C@H](C)C(=O)N[C@@H](Cc1cnc[nH]1)C(=O)N1CCC[C@@H]1CN[C@@H](Cc1ccccc1)C(N)=O gave IC50 of 0.05

Continuing:
// CC(C)[C@H](NC(=O)[C@H](C)NC(=O)[C@H](Cc1c[nH]c2ccccc12)NC(=O)[C@H](Cc1c[nH]cn1)NC(=O)[C@@H](C)c1ccccc1)C(=O)N[C@H](C)C(=O)N[C@@H](Cc1c[nH]cn1)C(=O)N1CCC[C@@H]1CN[C@@H](Cc1ccccc1)C(N)=O (X6-HWAV[dA]H-{dProψ(CH2NH)PheNH2}) : IC50 value = 1.3

* * *

Biological target: Gastrin-releasing peptide receptor (Mus musculus)
Experiment: Inhibition of 6 nM bombesin induced [3H]thymidine incorporation measured in swiss 3T3 cells using a mitogenicity assay
Format: functional, cell-based
Where a SMILES comes first, the peptide text is derived from it. [ ]: non-standard residue; d: D form. The star is where a group is joined. X3 = NC(=O)[C@H](Cc1ccc(O)cc1)NC[C@H]1CCCN1*; Hydrocinnamoyl = O=C(CCc1ccccc1)*
Note to self: values exactly at 40 nM are true (1). So Activity at or above 40 nM is true (1), below is false (0).

// below: answered compounds
query: Dear colleague, could you confirm whether CC(C)[C@H](NC(=O)[C@H](C)NC(=O)[C@H](Cc1c[nH]c2ccccc12)NC(=O)[C@H](Cc1c[nH]cn1)NC(=O)CCc1ccccc1)C(=O)N[C@H](C)C(=O)N[C@@H](Cc1c[nH]cn1)C(=O)N1CCC[C@@H]1CN[C@@H](Cc1ccc(O)cc1)C(N)=O (Hydrocinnamoyl-HWAV[dA]H-X3) has Activity at or above 40 nM?
result: false (0)

query: Hello, I need to know if CC(C)[C@H](NC(=O)[C@H](C)NC(=O)[C@H](Cc1c[nH]c2ccccc12)NC(=O)[C@H](Cc1c[nH]cn1)NC(=O)C1C[C@@H]1c1ccccc1)C(=O)N[C@H](C)C(=O)N[C@@H](Cc1c[nH]cn1)C(=O)N1CCC[C@@H]1CN[C@@H](Cc1ccccc1)C(N)=O (stereo partly drawn) has measured Activity not below 40 nM. Thanks!
result: false (0)

query: Record CC(C)[C@H](NC(=O)[C@H](C)NC(=O)[C@H](Cc1c[nH]c2ccccc12)NC(=O)[C@H](Cc1c[nH]cn1)NC(=O)[C@@H](N)Cc1ccc2ccccc2c1)C(=O)N[C@H](C)C(=O)N[C@@H](Cc1c[nH]cn1)C(=O)N1CCC[C@@H]1CN[C@@H](Cc1ccccc1)C(N)=O ; criterion: Activity no lower than 40 nM. Met?
result: true (1)

query: Item CC(NC(=O)[C@H](Cc1c[nH]c2ccccc12)NC(=O)[C@H](Cc1cccs1)NC(=O)CCc1ccccc1)C(=O)N[C@H](C(=O)NC(C)C(=O)N[C@@H](Cc1c[nH]cn1)C(=O)N1CCC[C@H]1CN[C@@H](Cc1ccccc1)C(N)=O)C(C)C (stereo in doubt) with Activity of 40 nM or above?
result: true (1)

query: State whether the measured Activity reaches 40 nM, counting equality as reaching it, for CCCCC(NC[C@H]1CCCN1C(=O)[C@H](Cc1cccs1)NC(=O)[C@@H](C)NC(=O)[C@@H](NC(=O)[C@H](C)NC(=O)[C@H](Cc1c[nH]c2ccccc12)NC(=O)[C@H](Cc1c[nH]cn1)NC(=O)CCc1ccccc1)C(C)C)C(N)=O (stereo partly drawn)
result: true (1)

More entries:
query: Does the reported Activity for CC(C)[C@H](NC(=O)[C@H](C)NC(=O)[C@H](Cc1c[nH]c2ccccc12)NC(=O)[C@H](Cc1c[nH]cn1)NC(=O)C[C@@H](C)c1ccccc1)C(=O)N[C@H](C)C(=O)N[C@@H](Cc1c[nH]cn1)C(=O)N1CCC[C@@H]1CN[C@@H](Cc1ccccc1)C(N)=O fall at or above the 40 nM mark?
result: false (0)

query: // inclusive: Activity at least 40 nM? input: CC(C)[C@H](NC(=O)[C@H](C)NC(=O)[C@H](Cc1c[nH]c2ccccc12)NC(=O)[C@H](Cc1c[nH]cn1)NC(=O)c1cc2ccccc2cn1)C(=O)N[C@H](C)C(=O)N[C@@H](Cc1c[nH]cn1)C(=O)N1CCC[C@@H]1CN[C@@H](Cc1ccccc1)C(N)=O
result: false (0)
